target: Histone-lysine N-methyltransferase EZH2 (Homo sapiens)
Sequence (Q15910 whole entry): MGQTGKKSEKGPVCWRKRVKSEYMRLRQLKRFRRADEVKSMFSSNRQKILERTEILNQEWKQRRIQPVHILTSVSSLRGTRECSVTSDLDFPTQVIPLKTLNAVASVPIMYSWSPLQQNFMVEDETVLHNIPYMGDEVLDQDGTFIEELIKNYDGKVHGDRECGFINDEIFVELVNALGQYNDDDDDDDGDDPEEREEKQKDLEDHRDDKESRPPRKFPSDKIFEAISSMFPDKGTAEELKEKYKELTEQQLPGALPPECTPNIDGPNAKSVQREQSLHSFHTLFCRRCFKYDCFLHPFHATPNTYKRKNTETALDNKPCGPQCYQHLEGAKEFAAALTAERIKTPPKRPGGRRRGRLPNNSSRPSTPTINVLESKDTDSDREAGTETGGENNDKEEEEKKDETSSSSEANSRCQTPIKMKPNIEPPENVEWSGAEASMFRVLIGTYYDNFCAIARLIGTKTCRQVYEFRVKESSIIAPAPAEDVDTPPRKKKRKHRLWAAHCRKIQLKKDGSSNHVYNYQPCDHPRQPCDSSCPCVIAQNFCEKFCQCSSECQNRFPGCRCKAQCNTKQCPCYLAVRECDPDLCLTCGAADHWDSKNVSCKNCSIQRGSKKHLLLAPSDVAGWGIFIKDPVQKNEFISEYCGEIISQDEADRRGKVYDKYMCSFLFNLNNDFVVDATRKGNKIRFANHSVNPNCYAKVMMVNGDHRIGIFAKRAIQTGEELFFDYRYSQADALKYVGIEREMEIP
readout: IC50 (nM)

A. COc1cccc(OC)c1-c1cc(C(=O)NCc2c(C)cc(C)[nH]c2=O)c2ccc(=O)[nH]c2c1
B. Cc1cc(C)c(CNC(=O)c2cc(-c3ccc(-c4ccccc4)cc3)cc3[nH]c(=O)ccc23)c(=O)[nH]1
C. Cc1cc(C)c(CNC(=O)c2cc(-c3ccc(Br)cc3)cc3[nH]c(=O)ccc23)c(=O)[nH]1
In this exercise, place the 3 compounds in ascending sequence of their recorded IC50. Give the order by naming the labels one after another as requested.
C, B, A
(C: 1.01 nM, B: 1.67 nM, A: 5.84 nM)

---

biological target: Histone-lysine N-methyltransferase EZH2 (Homo sapiens); test: Inhibition of EZH2 (unknown origin)
pIC50: −log10 of the molar value.
readout: pIC50

I. COc1ccc2cc(-c3cc(C(=O)NCc4c(C)cc(C)[nH]c4=O)c4ccc(=O)[nH]c4c3)ccc2c1
II. Cc1cc(C)c(CNC(=O)c2cc(-c3cccnc3)cc3[nH]c(=O)ccc23)c(=O)[nH]1
Returns: the label, I or II , whose recorded pIC50 is the lower number. State your choice using its label.
I

I. Cc1cc(C)c(CNC(=O)c2cc(-c3ccc(Oc4ccccc4)cc3)cc3[nH]c(=O)ccc23)c(=O)[nH]1
II. Cc1ccc(-c2cc(C(=O)NCc3c(C)cc(C)[nH]c3=O)c3ccc(=O)[nH]c3c2)cc1
Returns: the label, I or II , whose recorded pIC50 is the lower number. State your choice using its label.
I
(I: 8.09, II: 8.56)
